The following binders are listed with their measured pKd values.
# system: T1, human IL-6 (human, UniProt P05231 30-212)
# T1 construct: IL-6 flowed over captured antibodies
# T1 sequence (P05231 30-212 limits assumed): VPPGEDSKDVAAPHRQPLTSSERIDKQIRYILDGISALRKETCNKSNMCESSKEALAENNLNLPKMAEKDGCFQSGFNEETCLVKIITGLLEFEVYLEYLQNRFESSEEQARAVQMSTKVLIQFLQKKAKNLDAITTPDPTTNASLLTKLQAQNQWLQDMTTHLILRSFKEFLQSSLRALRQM
# experimental-details: SPR Biacore, supernatant Ab on Protein A chip, 37 C
pKd: −log10 of the molar value.

binder: anti-IL-6 antibody, heavy chain I51L, G66D / light chain M32L, M50D, N52S, M88Q (antibody, IgG1, V domains shown, Full IgG1 (Expi293); VL = variant III) VH: EVQLVESGGGLVQPGGSLRLSCAASGFTFSPFAMSWVRQAPGKGLEWVAKLSPGGSWTYYSDTVTDRFTFSLDTSKSTAYLQMNSLRAEDTAVYYCARQLWGYYALDIWGQGTLVTVSS VL: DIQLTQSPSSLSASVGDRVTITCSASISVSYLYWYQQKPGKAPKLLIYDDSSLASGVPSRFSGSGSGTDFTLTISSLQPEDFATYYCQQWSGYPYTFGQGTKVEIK
pKd: 9.01

binder: anti-IL-6 antibody, heavy chain T65E, G66D / light chain M32L, M50D, N52S, M88Q (antibody, IgG1, V domains shown, Full IgG1 (Expi293); VL = variant III) VH: EVQLVESGGGLVQPGGSLRLSCAASGFTFSPFAMSWVRQAPGKGLEWVAKISPGGSWTYYSDTVEDRFTFSLDTSKSTAYLQMNSLRAEDTAVYYCARQLWGYYALDIWGQGTLVTVSS VL: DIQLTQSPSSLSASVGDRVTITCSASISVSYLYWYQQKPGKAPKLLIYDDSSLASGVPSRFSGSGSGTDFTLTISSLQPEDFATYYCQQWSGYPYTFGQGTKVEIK
pKd: 9.55

binder: anti-IL-6 antibody, heavy chain S35D, G66D / light chain M32L, M50D, N52S, M88Q (antibody, IgG1, V domains shown, Full IgG1 (Expi293); VL = variant III) VH: EVQLVESGGGLVQPGGSLRLSCAASGFTFSPFAMDWVRQAPGKGLEWVAKISPGGSWTYYSDTVTDRFTFSLDTSKSTAYLQMNSLRAEDTAVYYCARQLWGYYALDIWGQGTLVTVSS VL: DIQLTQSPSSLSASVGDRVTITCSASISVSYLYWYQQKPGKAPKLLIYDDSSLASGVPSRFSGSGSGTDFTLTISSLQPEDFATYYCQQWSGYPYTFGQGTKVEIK
pKd: 9.12

binder: anti-IL-6 antibody, heavy chain S35I, G66D / light chain M32L, M50D, N52S, M88Q (antibody, IgG1, V domains shown, Full IgG1 (Expi293); VL = variant III) VH: EVQLVESGGGLVQPGGSLRLSCAASGFTFSPFAMIWVRQAPGKGLEWVAKISPGGSWTYYSDTVTDRFTFSLDTSKSTAYLQMNSLRAEDTAVYYCARQLWGYYALDIWGQGTLVTVSS VL: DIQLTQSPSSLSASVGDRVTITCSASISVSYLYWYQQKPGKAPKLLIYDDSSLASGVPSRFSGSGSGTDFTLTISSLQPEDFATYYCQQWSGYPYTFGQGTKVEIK
pKd: 8.79

binder: anti-IL-6 antibody, heavy chain T65W, G66D / light chain M32L, M50D, N52S, M88Q (antibody, IgG1, V domains shown, Full IgG1 (Expi293); VL = variant III) VH: EVQLVESGGGLVQPGGSLRLSCAASGFTFSPFAMSWVRQAPGKGLEWVAKISPGGSWTYYSDTVWDRFTFSLDTSKSTAYLQMNSLRAEDTAVYYCARQLWGYYALDIWGQGTLVTVSS VL: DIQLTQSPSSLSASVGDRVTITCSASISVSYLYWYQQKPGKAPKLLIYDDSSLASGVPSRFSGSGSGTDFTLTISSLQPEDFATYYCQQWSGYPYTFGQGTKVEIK
pKd: 9.49
